# reported IC50; entries follow
# Assay System: hENPP2 (UniProtKB/SwissProt Sequence ref Q13822) (Homo sapiens (Human), UniProt Q13822)
# Assay: LPC hENPP2 assay (choline release, LPC as substrate)
# Type: biochemical
# Method: The principle of the assay consists in quantifying the released choline with an enzymatic method using choline oxidase and peroxidase. Choline oxydation by choline oxydase releases betaine and peroxide. The latter is quantified in presence of HRP that converts the peroxide detection agent TOOS and 4-aminoantipyrine into quinoneimine dye. The appearance of quinoneimine dye is measured spectrophotometrically at 555 nm and is proportional to the amount of choline released by ENPP2. […]

Record CN(c1nc(-c2ccc(F)cc2)cs1)c1c(CC#N)nc2ccc(C3=CCN(S(C)(=O)=O)CC3)nn12 , field IC50: > 1000 nM

====

# reported pIC50; entries follow
# Assay System: hENPP2 (UniProtKB/SwissProt Sequence ref Q13822) (Homo sapiens (Human), UniProt Q13822)
# Assay: LPC hENPP2 assay (choline release, LPC as substrate)
# Format: biochemical
pIC50: −log10 of the molar value.

CCc1nc2ccc(N3CCN(CC(=O)N4CC[C@@H](O)C4)CC3)nn2c1N(C)c1nc(-c2ccc(F)cc2)cs1 :: 6.30 to 7.00
CCc1nc2cnc(N3CCN(CC(=O)N4CCCC4)CC3)cn2c1N(C)c1nc(-c2ccc(F)cc2)c(C#N)s1 :: 6.30 to 7.00
CCc1nc2ccc(C3CCNCC3)nn2c1N(C)c1nc(-c2ccc(F)cc2C#N)ns1 :: < 6.00
CCc1nc2ccc(N3CCC(N4CCNC(=O)C4)C3)nn2c1N(C)c1nc(-c2ccc(F)cc2)cs1 (stereo not shown) :: 6.00 to 6.30
CCc1nc2ccc(N3CCC4(CCCCC4)CC3)nn2c1N(C)c1nc(-c2ccc(F)cc2)cs1 :: < 6.00

Record CCc1nc2ccc(N3CC4CN(C(C)=O)CC4C3)nn2c1N(C)c1nc(-c2ccc(F)cc2)cs1 (stereo not shown) , field pIC50: < 6.00

Record CCc1nc2ccc(N3CCC(CNC(=O)OC(C)(C)C)CC3)nn2c1N(C)c1nc(-c2ccc(F)cc2)cs1 , field pIC50: < 6.00

Record CCc1nc2ccc(N3CCN(CC(=O)N(C)C(C)C)CC3)nn2c1N(C)c1nc(-c2ccc(F)cc2)cs1 , field pIC50: 6.30 to 7.00

Record CCc1nc2cnc(C3=CCN(CC(=O)N4CC(O)C4)CC3)cn2c1N(C)c1nc(-c2ccc(F)cc2)c(C#N)s1 , field pIC50: 6.30 to 7.00

Record CCc1nc2ccc(N3CCCC4(CN(C)C(=O)O4)C3)nn2c1N(C)c1nc(-c2ccc(F)cc2)c(C#N)s1 (stereo not shown) , field pIC50: < 6.00

Record CCc1nc2ccc(N3CC[C@H](NCC(=O)N(C)C)C3)nn2c1N(C)c1nc(-c2ccc(F)cc2)c(C#N)s1 , field pIC50: 7.00 to 11.00

====

# Assay System: hENPP2 (UniProtKB/SwissProt Sequence ref Q13822) (Homo sapiens (Human), UniProt Q13822)
# Assay: LPC hENPP2 assay (choline release, LPC as substrate)
# Type: biochemical
pIC50: −log10 of the molar value.
# reported pIC50; entries follow

For orientation, consider the following solved cases.
CCc1nc2ccc(C3CCN(CC(=O)N4CC(O)C4)CC3)nn2c1N(C)c1nc(-c2ccc(F)cc2)ccc1C#N :: < 6.00
CCc1nc2ccc(N3CCC(=O)C3)nn2c1N(C)c1nc(-c2ccc(F)cc2)c(C#N)s1 :: 6.30 to 7.00
CCc1nc2ccc(N3CC4CN(C(=O)OC(C)(C)C)CC4C3)nn2c1N(C)c1nc(-c2ccc(F)cc2)cs1 (stereo not shown) :: < 6.00
CCc1nc2ccc(N3CCCC(N4CCOCC4)C3)nn2c1N(C)c1nc(-c2ccc(F)cc2)cs1 (stereo not shown) :: < 6.00
CCc1nc2ccc(N3CCC(CNC(=O)C4CCOCC4)CC3)nn2c1N(C)c1nc(-c2ccc(F)cc2)cs1 :: 6.00 to 6.30
CCc1nc2ccc(N3CCN(S(C)(=O)=O)[C@H](CO)C3)nn2c1N(C)c1nc(-c2ccc(F)cc2)c(CO)s1 :: 6.30 to 7.00

API: the following record is the query input.
Record CCc1nc2ccc(N3CCN(CCNC(C)=O)CC3)nn2c1N(C)c1nc(-c2ccc(F)cc2)cs1 , field pIC50: 6.30 to 7.00

====

# reported IC50; entries follow
# Assay System: hENPP2 (UniProtKB/SwissProt Sequence ref Q13822) (Homo sapiens (Human), UniProt Q13822)
# Assay: LPC hENPP2 assay (choline release, LPC as substrate)
# Type: biochemical

For orientation, consider the following solved cases.
CCc1nc2ccc(N3CCC(N4CCCCC4)C3)nn2c1N(C)c1nc(-c2ccc(F)cc2)cs1 (stereo not shown) :: > 1000 nM
CCc1nc2cnc(N3CCN(CC(=O)NC)CC3)cn2c1N(C)c1nc(-c2ccc(F)cc2)c(C#N)s1 :: 500 to 1000 nM
CCOC(=O)C1CCN(c2ccc3nc(CC)c(N(C)c4nc(-c5ccc(F)cc5)cs4)n3n2)CC1 :: > 1000 nM

Record CCc1nc2ccc(C3CCN(CC(=O)N4CC(O)C4)CC3)nn2c1N(C)c1cccc(-c2ccc(F)cc2)n1 , field IC50: 500 to 1000 nM

====

# Assay System: hENPP2 (UniProtKB/SwissProt Sequence ref Q13822) (Homo sapiens (Human), UniProt Q13822)
# Assay: LPC hENPP2 assay (choline release, LPC as substrate)
# Assay type: biochemical
# reported IC50; entries follow

For orientation, consider the following solved cases.
CCc1nc2ccc(N3CCN(CCOC)CC3)nn2c1N(C)c1nc(-c2ccc(F)cc2)cs1 :: > 1000 nM
CCc1nc2ccc(N3CCC(N4CCOCC4)CC3)nn2c1N(C)c1nc(-c2ccc(F)cc2)cs1 :: 500 to 1000 nM
CCc1nc2ccc(C3=CCN(S(C)(=O)=O)CC3)nn2c1N(C)c1nc(-c2ccc(F)cc2)cs1 :: > 1000 nM
CCc1nc2cnc(N3CCNCC3)cn2c1N(C)c1nc(-c2ccc(F)cc2)c(C#N)s1 :: > 1000 nM
CCc1nc2ccc(C3CCN(CC(=O)N4CC(O)C4)CC3)nn2c1N(C)c1nc(-c2ccc(F)cc2C#N)cs1 :: 100 to 500 nM
CCc1nc2ccc(N3CC(C(=O)N4CCC(O)C4)C3)nn2c1N(C)c1nc(-c2ccc(F)cc2)c(C#N)s1 (centres unmarked) :: 100 to 500 nM

Record CCc1nc2ccc(N3CCC(O)(CNC(C)=O)C3)nn2c1N(C)c1nc(-c2ccc(F)cc2)c(C#N)s1 (centres unmarked) , field IC50: 0.01 to 100 nM

Record CCc1nc2ccc(C3CCN(CC(=O)N4CC(O)C4)CC3)nn2c1N(C)c1nc(-c2ccc(F)cc2C#N)c(C)s1 , field IC50: > 1000 nM

====

# reported pIC50; entries follow
# Assay System: hENPP2 (UniProtKB/SwissProt Sequence ref Q13822) (Homo sapiens (Human), UniProt Q13822)
# Assay: FS3 hENPP2 assay (fluorogenic substrate FS-3)
# Type: biochemical
# Conditions: hENPP2, FS-3 as substrate
pIC50: −log10 of the molar value.

For orientation, consider the following solved cases.
CCc1nc2ccc(N3CC4CN(C(=O)OC(C)(C)C)CC4C3)nn2c1N(C)c1nc(-c2ccc(F)cc2)cs1 (stereo not shown) :: 7.60 to 11.00
CCc1nc2cnc(C3CCNCC3)cn2c1N(C)c1nc(-c2ccc(F)cc2)c(C#N)s1 :: 7.30 to 7.60
CCc1nc2ccc(N3CCC(N4CCCCC4)C3)nn2c1N(C)c1nc(-c2ccc(F)cc2)cs1 (stereo not shown) :: 7.60 to 11.00

Record CCc1nc2ccc(N3CCN(S(=O)(=O)CC)CC3)nn2c1N(C)c1nc(-c2ccc(F)cc2)cs1 , field pIC50: 7.60 to 11.00

====

# Assay System: hENPP2 (UniProtKB/SwissProt Sequence ref Q13822) (Homo sapiens (Human), UniProt Q13822)
# Assay: LPC hENPP2 assay (choline release, LPC as substrate)
# Format: biochemical
Measured Attribute: IC50

For orientation, consider the following solved cases.
CCc1nc2ccc(N3CC(NCC(=O)N4CC(O)C4)C3)nn2c1N(C)c1nc(-c2ccc(F)cc2)c(C#N)s1 :: 0.01 to 100 nM
CCc1nc2ccc(N3CCC(CO)C3)nn2c1N(C)c1nc(-c2ccc(F)cc2)cs1 (centres unmarked) :: > 1000 nM
CCc1nc2ccc(C3CCN(CC(=O)N4CC(O)C4)CC3)nn2c1N(C)c1nc(-c2ccc(F)cc2C#N)ns1 :: 100 to 500 nM
CCc1nc2ccc(N3CCC(N4CCC(CO)CC4)C3)nn2c1N(C)c1nc(-c2ccc(F)cc2)c(C#N)s1 (centres unmarked) :: 0.01 to 100 nM
CCc1nc2ccc(N3CC[C@@H](NCC(=O)N4CC(O)C4)C3)nn2c1N(C)c1nc(-c2ccc(F)cc2)c(C#N)s1 :: 0.01 to 100 nM
CCc1nc2ccc(N3CC(NS(C)(=O)=O)C3)nn2c1N(C)c1nc(-c2ccc(F)cc2)c(C#N)s1 :: 0.01 to 100 nM
CCc1nc2ccc(N3CCC(C(=O)OC)C3)nn2c1N(C)c1nc(-c2ccc(F)cc2)cs1 (centres unmarked) :: > 1000 nM
CCc1nc2cnc(C3CCN(CC(=O)N4CC(O)C4)CC3)cn2c1N(C)c1nc(-c2ccc(F)cc2)c(C#N)s1 :: 100 to 500 nM

Record CCc1nc2ccc(N3CCN(CCNC(=O)OC(C)(C)C)CC3)nn2c1N(C)c1nc(-c2ccc(F)cc2)cs1 , field IC50: > 1000 nM
